Where do the numbers come from? From PubChem BioAssay (EPA / NIEHS).

- Assay Procedure: CCTE_Mundy_HCI_iCellGluta_NOG_NeuriteCount: CCTE's Neurite Outgrowth Assay in iCellGluta cells for Neurite Count, Mundy Lab (AID 2284342);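 further: chemical exposure about 48 hours starting 2 hours after plating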
Results filed as inconclusive are left out. Calls of active or inactive are those of the source. How the source made its calls: active means hit-call score of the fitted dose curve at least 0.9, where 1 is the maximum; inconclusive means response in the unintended direction; inactive means score below 0.9.
Measured Property: AC50

Cc1cc(C(F)(C(F)(F)F)C(F)(F)F)ccc1NC(=O)c1cccc(I)c1C(=O)NC(C)(C)CS(C)(=O)=O ... inactive
CC1(C)[C@H](C(=O)O[C@H](C#N)c2cccc(Oc3ccccc3)c2)[C@@H]1/C=C(\Cl)C(F)(F)F ... inactive
OC(Cc1ccccc1Cl)(Cn1[nH]cnc1=S)C1(Cl)CC1 (stereo not given) ... inactive
CS(=O)(=O)c1ccc(C(=O)C2C(=O)CCCC2=O)c(Cl)c1COCC(F)(F)F ... 25.3 µM (active)

Lookup result for Cc1ccccc1OP(=O)(Oc1ccccc1C)Oc1ccccc1C ; measured AC50: 12.5 µM (active)

---

- Target Desc: human Retinoid X Receptor beta (RXRb), RXRB (gene 6257)
- Assay Procedure: ATG_RXRb_TRANS: Attagene TRANS-FACTORIAL HepG2 Assay for human Retinoid X Receptor beta (RXRb) (AID 2283013)
Inconclusive results are not listed. Calls of active or inactive are those of the source. Rule for the calls: active = hit-call score of the fitted dose curve at least 0.9, where 1 is the maximum; inconclusive = response in the unintended direction; inactive = score below 0.9.
Reply using exactly one outcome from true (1) (active), false (0) (inactive)

Previously resolved entries follow.
O=C(O)COc1cc(Cl)c(Cl)cc1Cl ... false (0)
[F][Sn]([c]1ccccc1)([c]1ccccc1)[c]1ccccc1 ... true (1)
Cc1cccc(N=Nc2ccc(N(C)C)cc2)c1 ... false (0)
c1csc(-c2ccc(-c3cccs3)s2)c1 ... false (0)
CCOCn1c(-c2ccc(Cl)cc2)c(C#N)c(Br)c1C(F)(F)F ... false (0)
C#CCOC(=O)/C=C(C)/C=C/CC(C)CCCC(C)C (stereo unspecified) ... true (1)
O=C(O)COc1ccc(Cl)cc1 ... false (0)
CCCCN(CCCC)C(=S)S ... false (0)
C=CCN=C=S ... false (0)
C1CCC(C2CCCCC2)CC1 ... true (1)

Outcome? NC(=O)CCl
false (0)

Outcome? ClCc1ccccc1CCl
false (0)

Outcome? O=[N+]([O-])c1c2ccccc2cc2ccccc12
true (1)

Outcome? CC(C)=CC1C(C(=O)OCc2cccc(Oc3ccccc3)c2)C1(C)C (stereo unspecified)
false (0)

Outcome? CCOc1cc(C=O)ccc1O
false (0)

---

- Read-out: Epidermal growth factor receptor (EGFR), EGFR (gene 1956)
- Assay Procedure: BSK_hDFCGF_EGFR: BioMAP Diversity Plus: hDFCGF Assay for Epidermal growth factor receptor (EGFR) Biomarker Activity (AID 2283057)
- Measurement Setup: primary human foreskin fibroblasts; actives raise or lower the signal
The source made the active and inactive calls. Rule for the calls: active = hit-call score of the fitted dose curve at least 0.9, where 1 is the maximum; inactive = score below 0.9.
Reply using exactly one outcome from y = active, n = inactive

Previously resolved entries follow.
COc1ccccc1N ... n
Oc1cccc(-c2ccccc2)c1 ... n

Outcome? Cc1cc(C)cc(C)c1
n

Outcome? c1ccc(-c2cccc(-c3ccccc3)c2)cc1
n

Outcome? Clc1cccc(Cl)c1
n

Outcome? CCOC(=O)CC(=O)CCl
n

Outcome? C=CC(Cl)CCl (stereo not drawn)
n

---

- Target Desc: Bile acid receptor (Homo sapiens)
- Assay Procedure: ATG_FXR_TRANS: Attagene TRANS-FACTORIAL HepG2 Assay for Farnesoid X Receptor (FXR) (AID 2282979);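 further: hits raise reporter mRNA above DMSO so AC50 marks FXR activation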
- Measurement Setup: HepG2 Attagene TRANS FXR-GAL4 reporter transcription
Records with an inconclusive call do not appear. Active and inactive are the calls of the source. How the source made its calls: active means hit-call score of the fitted dose curve at least 0.9, where 1 is the maximum; inconclusive means response in the unintended direction; inactive means score below 0.9.
Measured Property: outcome

Examples from the recorded data:
CC(C)(c1ccc(O)c(-c2ccccc2)c1)c1ccc(O)c(-c2ccccc2)c1 ... inactive
N#CCCC(Br)(C#N)CBr (centres undefined) ... inactive
O=S1(=O)OC(c2cc(Br)c(O)c(Br)c2)(c2cc(Br)c(O)c(Br)c2)c2ccccc21 ... inactive
CCCCCCCCCCCCN(C)C ... inactive

Log: Bile acid receptor (Homo sapiens), compound CC(C)(COCC1CO1)COCC1CO1 (centres undefined) , outcome = inactive

Log: Bile acid receptor (Homo sapiens), compound FC(F)OCC(F)(F)C(F)(F)F , outcome = inactive

Log: Bile acid receptor (Homo sapiens), compound CN(N=O)C(N)=O , outcome = inactive

Log: Bile acid receptor (Homo sapiens), compound COc1ccc([N+](=O)[O-])cc1O , outcome = inactive

---

- Read-out: cysteine-aspartic acid protease (CASP8), CASP8 (gene 841)
- Assay Procedure: LTEA_HepaRG_CASP8: Life Technologies and Expression Analysis (LTEA) Assay for cysteine-aspartic acid protease (CASP8) using HepaRG (AID 2283480)
- Measurement Setup: mRNA level, 48 h; actives raise or lower the signal
Active and inactive are the calls of the source. Rule for the calls: active = hit-call score of the fitted dose curve at least 0.9, where 1 is the maximum; inactive = score below 0.9.
Reply using exactly one outcome from active, inactive

Oc1cc(Cl)c(Cl)cc1Cl ... inactive

Outcome? CC(C)(C)c1ccccc1O
inactive

Outcome? N#Cc1cccnc1
inactive

Outcome? CC(C)O.CC(C)O.OCCN(CCO)CCO.OCCN(CCO)CCO.[Ti]
inactive

Outcome? Oc1c(Cl)cc(Cl)cc1Cl
active

Outcome? Clc1cccc(Cl)c1Cl
inactive

Outcome? CCCCCCCCCCCCc1cccc(S(=O)(=O)O)c1
inactive

Outcome? COc1ccccc1N
inactive

---

- Assay Procedure: TOX21_p53_BLA_p3_viability: Viability Assessment in the Tox21 HCT-116 p53 Agonism Beta-lactamase Assay, Phase 3 (AID 2283593);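 further: cells exposed to compound for 16 h before reading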
Inconclusive results are not listed. Active and inactive are the calls of the source. The calls were made as follows: active = hit-call score of the fitted dose curve at least 0.9, where 1 is the maximum; inconclusive = response in the unintended direction; inactive = score below 0.9.
Measured Property: outcome

Nc1ccc(Br)cc1 ... inactive
CCC[N+](CCC)(CCC)CCC ... inactive
C#C[C@]1(O)CC[C@H]2[C@@H]3CCC4=CC(=O)CC[C@]4(C)[C@H]3CC[C@@]21C ... inactive
CC(c1ccc(O)cc1)c1ccc(O)cc1 ... inactive
CN(N=O)C(N)=O ... inactive

Lookup result for O=NN1CCOCC1 ; measured outcome: inactive

Lookup result for CCOC(=O)CC(=O)CCl ; measured outcome: inactive

Lookup result for O=C(CCl)Nc1ccccc1 ; measured outcome: inactive

---

- Target Desc: Peroxisome proliferator-activated receptor gamma (Homo sapiens) (UniProt P37231)
- Sequence (P37231 whole entry, looked up): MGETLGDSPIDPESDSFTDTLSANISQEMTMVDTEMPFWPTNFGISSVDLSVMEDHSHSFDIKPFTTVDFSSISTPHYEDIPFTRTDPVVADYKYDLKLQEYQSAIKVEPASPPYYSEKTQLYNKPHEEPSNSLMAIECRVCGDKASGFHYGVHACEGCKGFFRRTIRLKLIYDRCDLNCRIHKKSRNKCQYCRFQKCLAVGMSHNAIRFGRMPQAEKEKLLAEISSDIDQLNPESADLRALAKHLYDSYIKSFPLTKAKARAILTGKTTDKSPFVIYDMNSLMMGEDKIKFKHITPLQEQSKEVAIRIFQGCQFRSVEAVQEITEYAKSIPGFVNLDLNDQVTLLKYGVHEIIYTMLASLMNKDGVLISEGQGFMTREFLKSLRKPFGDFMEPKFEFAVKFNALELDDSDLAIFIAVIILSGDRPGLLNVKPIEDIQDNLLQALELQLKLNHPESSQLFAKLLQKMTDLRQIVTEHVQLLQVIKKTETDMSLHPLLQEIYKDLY
- Assay Procedure: ATG_PPARg_TRANS: Attagene TRANS-FACTORIAL HepG2 Assay for human Peroxisome Proliferator-activated Receptor-gamma (PPARg) (AID 2283007)
Inconclusive results are not listed. Activity calls are given as the source filed them. How the source made its calls: active means hit-call score of the fitted dose curve at least 0.9, where 1 is the maximum; inconclusive means response in the unintended direction; inactive means score below 0.9.
Reply using exactly one outcome from active, inactive

O=C(Cc1ccccc1)OCCc1ccccc1 ... inactive
OC(c1ccc(Cl)cc1)(c1ccc(Cl)cc1)c1cccnc1 ... inactive
O=C(N[C@H]1CN2CCC1CC2)c1ccc2c(c1)OCCO2 ... inactive

Outcome? COc1ccccc1N
inactive

Outcome? CC(=O)CN(CC(C)=O)N=O
inactive

Outcome? Cc1cc(C(C)(C)c2ccc(O)c(C)c2)ccc1O
active

Outcome? CCCCOC(C)=O
inactive

Outcome? C=CC(=O)[O][Sn]([CH2]CCC)([CH2]CCC)[CH2]CCC
active

---

- Assay Procedure: ATG_Sox_CIS: Attagene CIS-FACTORIAL HepG2 Assay for human SRY-box transcription factor (SOX) (AID 2282960)
- Measurement Setup: HepG2 Attagene cis-factorial SOX reporter, mRNA; actives raise or lower the signal
Activity calls are given as the source filed them. Rule for the calls: active = hit-call score of the fitted dose curve at least 0.9, where 1 is the maximum; inactive = score below 0.9.
Reply using exactly one outcome from t (active), f (inactive)

BrCC(Br)c1ccccc1 (stereo not given) ... f
N#Cc1ccccc1N ... f
O=C(Cl)OCCOCCOC(=O)Cl ... f
CCOP(=S)(OCC)OP(=S)(OCC)OCC ... f
COc1ccc([N+](=O)[O-])cc1O ... f

Outcome? Oc1c(Cl)cc(Cl)cc1Cl
f

Outcome? CCOC(=O)Cc1ccccc1
f

Outcome? c1ccc(-c2cccc(-c3ccccc3)c2)cc1
f

Outcome? O=[N+]([O-])c1ccccc1O
f

Outcome? ClCCCCl
f

Outcome? CCCCCCCCCCCCCCC(Br)C(=O)O (stereo not given)
f

---

- Assay Procedure: CCTE_Harrill_HTTr_Apoptosis_MCF7: CCTE's 6-hour Apoptosis Assessment for the High-Throughput Transcriptomics (HTTr) Platform, in MCF-7 cells cultured in DMEM + 10% fetal bovine serum, Harrill Lab (AID 2284011)
The source made the active and inactive calls. The calls were made as follows: active = hit-call score of the fitted dose curve at least 0.9, where 1 is the maximum; inactive = score below 0.9.
Measured Property: outcome

N#CCC#N ... inactive
CC(C)[C@@H](Nc1ccc(C(F)(F)F)cc1Cl)C(=O)OC(C#N)c1cccc(Oc2ccccc2)c1 (stereo partly drawn) ... inactive
O=CCCl ... inactive

---

- Assay Procedure: Tanguay_ZF_120hpf_AXIS_legacy: (Legacy) Oregon State University Tanguay Lab 120 Hour Post-fertilization zebrafish Assay for Body Axis Malformation (AID 2283635)
Results filed as inconclusive are left out. Activity calls are given as the source filed them. The calls were made as follows: active = hit-call score of the fitted dose curve at least 0.9, where 1 is the maximum; inconclusive = response in the unintended direction; inactive = score below 0.9.
Reply using exactly one outcome from T (active), F (inactive)

Oc1c(Cl)cc(Cl)cc1Cl ... F
Clc1cccc(Cl)c1Cl ... F
Cc1cc(C)cc(C)c1 ... F
CC(C)O.CC(C)O.OCCN(CCO)CCO.OCCN(CCO)CCO.[Ti] ... F

Here is the next item to consider.
Outcome? OCCN(CCO)CCO
F
